Entries annotated with measured phosphorylation enrichment
Subject Of Test: MERTK (UniProt Q12866)
Sequence (Q12866 whole entry, looked up): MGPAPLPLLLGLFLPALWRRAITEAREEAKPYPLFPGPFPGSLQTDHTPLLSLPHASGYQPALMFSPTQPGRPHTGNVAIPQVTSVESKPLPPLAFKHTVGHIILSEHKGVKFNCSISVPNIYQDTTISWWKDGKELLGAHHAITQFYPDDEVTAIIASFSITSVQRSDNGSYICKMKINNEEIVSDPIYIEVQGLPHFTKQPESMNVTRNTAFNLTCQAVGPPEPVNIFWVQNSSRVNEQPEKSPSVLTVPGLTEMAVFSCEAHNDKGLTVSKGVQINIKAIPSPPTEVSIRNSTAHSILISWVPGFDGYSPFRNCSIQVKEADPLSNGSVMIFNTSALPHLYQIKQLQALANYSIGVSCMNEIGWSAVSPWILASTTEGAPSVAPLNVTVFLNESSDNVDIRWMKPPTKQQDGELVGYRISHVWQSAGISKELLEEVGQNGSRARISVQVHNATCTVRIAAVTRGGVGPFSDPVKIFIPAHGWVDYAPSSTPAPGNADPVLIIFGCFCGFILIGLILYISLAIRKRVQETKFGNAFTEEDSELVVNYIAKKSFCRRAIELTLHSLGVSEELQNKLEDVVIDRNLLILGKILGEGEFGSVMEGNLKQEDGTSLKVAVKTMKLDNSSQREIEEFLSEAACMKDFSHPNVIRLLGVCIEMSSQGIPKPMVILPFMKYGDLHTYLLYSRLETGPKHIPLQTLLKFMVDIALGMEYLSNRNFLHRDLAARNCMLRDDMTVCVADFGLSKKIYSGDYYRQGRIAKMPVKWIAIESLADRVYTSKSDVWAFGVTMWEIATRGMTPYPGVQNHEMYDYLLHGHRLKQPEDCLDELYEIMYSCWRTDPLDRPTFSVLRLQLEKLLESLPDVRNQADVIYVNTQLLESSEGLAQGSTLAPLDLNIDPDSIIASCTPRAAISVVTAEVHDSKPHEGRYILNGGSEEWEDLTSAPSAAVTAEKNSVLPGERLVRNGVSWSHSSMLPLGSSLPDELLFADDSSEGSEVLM
Test Summary: phosphorylation enrichment, bacterial display (enrichment ratio); higher = better substrate or ligand; peptides without Tyr show the background;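 note: 11-residue human phosphosite peptides and single-mutation variants displayed on the E. coli surface, counted by deep sequencing, each peptide's frequency after selection divided by its frequency in the unselected input library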;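 note: frequency after pTyr selection over input frequency; kinase dosed for 20-30% of maximal phosphorylation in three min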
Please give only the number in your answer, with no unit.

Documented phosphorylation enrichment of YPQARYHWLVL [APTX_Y214_K211Q] : 1.05

Documented phosphorylation enrichment of KDHPDYKYQPR [SOX10_Y171] : 0.387

Documented phosphorylation enrichment of YEEDSYVERSQ [RET_Y905_K907E] : 0.504

Documented phosphorylation enrichment of LARHMYDKEYY [MET_Y1230_D1228H] : 0.597

Documented phosphorylation enrichment of YENGEYIIRQG [PRKG1_Y247] : 0.386

Others:
Documented phosphorylation enrichment of LVPAWYIGFLC [KCNQ2_Y237_T234P] : 0.361
